- System: SK-MEL-2
- METHOD_NOTES: NCI tumour cell line growth inhibition, 48 h
Active and inactive are the calls of the source. Cut-off read from the data, not from the text of the source: active = GI50 up to about 1.1 µM and inactive = higher.
QUANTITY: GI50

For the compound Nc1nnnn1CCO , give its measured GI50 value. > 100 µM (inactive)

For the compound COc1cc(/N=N/N(C)C)c(C(C)c2c3cc(OC)c(OC)cc3cc[n+]2C)cc1OC (stereo not given) , give its measured GI50 value. 24.9 µM (inactive)

For the compound Cc1cccc2c(N)c3cccc(C(=O)NCC[N+](C)(C)Cc4ccc([N+](=O)[O-])n4C)c3nc12 , give its measured GI50 value. 67.6 µM (inactive)

For the compound CC(C(=O)N1C(=O)N(C(=O)[C@H](C)C(O)c2ccccc2)[C@H](c2ccccc2)[C@H]1c1ccccc1)[C@@H](O)c1ccccc1 (stereo not given in full) , give its measured GI50 value. 16.9 µM (inactive)

For the compound CCOC(=O)C(=O)/C(=C/n1c(=S)[nH]c2ccc([N+](=O)[O-])cc21)C(=O)OCC , give its measured GI50 value. > 100 µM (inactive)

For the compound O=[N+]([O-])C1(CO)COC(CCc2ccccc2)OC1 (stereo not given) , give its measured GI50 value. > 100 µM (inactive)

For the compound C/C=C/C=C/C1=NN(c2cccc(S(=O)(=O)O)c2)C2(C1)SCC(=O)N2c1nc2ccccc2s1 (stereo not given) , give its measured GI50 value. 37.8 µM (inactive)

For the compound CC(C)CC(NC(=O)C(CI)Cc1ccccc1)C(=O)Nc1ccccc1 (stereo not given) , give its measured GI50 value. > 100 µM (inactive)

For the compound CC(C)c1ccc(C2NC(S)=NC3=C2c2ccccc2C3=O)cc1 (stereo not given) , give its measured GI50 value. 17.4 µM (inactive)

* * *

- Test system: SNB-75
- METHOD_NOTES: NCI tumour cell line growth inhibition, 48 h
Calls of active or inactive are those of the source. Cut-off read from the data, not from the text of the source: active = GI50 up to about 1.1 µM and inactive = higher.
Classes to choose from: active, inactive

These solved cases illustrate the format of a correct answer.
INSERT INTO results (compound, system_tested, discrete_label) VALUES
  ('O=C(CSc1nc2ccc(I)cc2c(=O)n1Cc1ccccc1)NN1C(=O)c2ccccc2C1=O', 'SNB-75', 'inactive'),
  ('O=C(O)c1ccccc1/C=C1/Cc2ccc3c(c2C1=O)CCC3', 'SNB-75', 'inactive'),
  ('CCOc1cc(NC(C)=O)ccc1C(=O)NN1C(=O)/C(=C/c2ccco2)N=C1c1ccccc1', 'SNB-75', 'inactive'),
  ('O=C1C(=O)c2cc([N+](=O)[O-])ccc2-c2ccc([N+](=O)[O-])cc21', 'SNB-75', 'inactive'),
  ('CCO/N=C(/CC)c1ccc(Br)s1', 'SNB-75', 'inactive');

How did this test come out for CN(C)CCCNc1cnc2cc3ccccc3cc2n1 ? inactive

How did this test come out for O=C1c2ccccc2C2(O)c3cc4ccccc4cc3OC12O (stereo unspecified) ? inactive

How did this test come out for Nc1nnnn1CCO ? inactive

How did this test come out for CC12CC3C(CC1SCC(=O)O2)C3(C)C (stereo unspecified) ? inactive

How did this test come out for CC(C)CCc1c(Cl)nc(Cl)nc1Cl ? inactive

How did this test come out for Cc1cccc2c(N)c3cccc(C(=O)NCC[N+](C)(C)Cc4ccc([N+](=O)[O-])n4C)c3nc12 ? inactive

How did this test come out for CC(C)C1CC2C(=O)N(c3ccccc3)C(=O)C2c2[nH]c3ccccc3c21 (stereo unspecified) ? inactive

How did this test come out for Cc1coc2c1CC1OC1(C)CCC1OC1(C)C2 (stereo unspecified) ? inactive

Data origin, for the record: ChEMBL document CHEMBL1201862
